Tested on: S. aureus ATTC 6538
Assay: microbe, parasite or virus in culture
Type: cell-based, Staphylococcus aureus
Conditions: Supplementary Table S1; S. aureus
MIC S. a. values by entry

Substance | Unit Of Measure | Readout Qualifier | MIC S. a.
C9-Arg-Thr-Dab-Cys-Dab-Phe-Gly-Arg-Dab-Cys [Analog 26] | µg/mL | = | 128
C9-Dap[(C=NH)NH2]-Thr-Dab-Cys-Dab-Phe-Leu-Dap[(C=NH)NH2]-Dab-Cys [Analog 14] | µg/mL | = | 16
C9-Arg-Thr-His-Cys-Dab-Phe-Leu-Arg-His-Cys [Analog 31] | µg/mL | = | 128
C9-Arg-Thr-Dab-Cys-Dab-Phe-Thr-Arg-Dab-Cys [Analog 27] | µg/mL | = | 64
C9-Arg-Thr-Dab-Cys-Dab-Gly-Gly-Arg-Dab-Cys [Analog 24] | µg/mL | > | 128
C9-Dab-Thr-Dab-Cys-Dab-Phe-Met-Dab-Dab-Cys [Analog 19] | µg/mL | = | 32
C9-Arg-Thr-Dab-Ser-Dab-Phe-Leu-Arg-Dab-Ser [Analog 18] | µg/mL | = | 64
C9-Arg-Thr-Orn-Cys-Dab-Phe-Leu-Arg-Orn-Cys [Analog 34] | µg/mL | = | 32
C9-Dab-Thr-Dab-Cys-Dab-Phe-Met(O)-Dab-Dab-Cys [Analog 20] | µg/mL | > | 32

====

Tested on: S. aureus ATTC 6538
Assay: microbe, parasite or virus in culture
Type: cell-based, Staphylococcus aureus
Settings: Supplementary Table S1; S. aureus
Each item that follows carries a reported MIC S. a..

Substance | Readout Qualifier | MIC S. a. (µg/mL)
C9-Arg-Thr-Dab-Cys-Dab-Leu-Thr-Arg-Dab-Cys [Analog 30] | > | 128
C9-Arg-Thr-Arg-Cys-Arg-Phe-Leu-Arg-Dab-Cys (RTRCRFLR; not fully specified; C9 acyl; Dab-Cys C-terminal; printed: Arg-Thr-Arg-Cys-Arg-Phe-Leu-Arg-) [Analog 11] | = | 16
C9-Arg-Thr-Arg-Cys-Dab-Phe-Leu-Dab-Dab-Cys [Analog 7] | = | 32
C9-Arg-Thr-Dab-Cys-Arg-Phe-Leu-Arg-Dab-Cys [Analog 9] | = | 16
C9-Arg-Thr-Arg-Cys-Dab-Phe-Met-Arg-Dab-Cys [Analog 22] | = | 32
C9-Orn-Thr-Dab-Cys-Dab-Phe-Leu-Orn-Dab-Cys [Analog 35] | = | 64
C9-Arg-Thr-Dab-Cys-Dab-Phe-Met-Arg-Dab-Cys [Analog 21] | > | 32
C9-Arg-Thr-Dab-Cys-Dab-Gly-Leu-Arg-Dab-Cys [Analog 25] | > | 128
C9-Lys-Thr-Dab-Cys-Dab-Phe-Leu-Lys-Dab-Cys [Analog 33] | = | 128
C9-Arg(NO2)-Thr-Dab-Cys-Dab-Phe-Leu-Arg(NO2)-Dab-Cys [Analog 16] | > | 32
C9-Arg-Thr-Dab-Cys-Dab-Trp-Leu-Arg-Dab-Cys [Analog 28] | = | 8
C9-Arg-Thr-Dab-Cys-Dab-Leu-Leu-Arg-Dab-Cys [Analog 29] | = | 32
C9-Dab[(C=NH)NH2]-Thr-Dab-Cys-Dab-Phe-Leu-Dab[(C=NH)NH2]-Dab-Cys [Analog 15] | > | 32
C9-Arg-Thr-Lys-Cys-Dab-Phe-Leu-Arg-Lys-Cys [Analog 32] | = | 32
C9-Arg-Thr-Dab-Cys-Dab-Phe-Leu-Arg-Dab-Cys [Analog 23] | = | 32
